// data source = patent US12576169B2

Target: human serum albumin (HSA) (Homo sapiens)
Construct: purchased H13H-2433
Sequence (P02768 25-609): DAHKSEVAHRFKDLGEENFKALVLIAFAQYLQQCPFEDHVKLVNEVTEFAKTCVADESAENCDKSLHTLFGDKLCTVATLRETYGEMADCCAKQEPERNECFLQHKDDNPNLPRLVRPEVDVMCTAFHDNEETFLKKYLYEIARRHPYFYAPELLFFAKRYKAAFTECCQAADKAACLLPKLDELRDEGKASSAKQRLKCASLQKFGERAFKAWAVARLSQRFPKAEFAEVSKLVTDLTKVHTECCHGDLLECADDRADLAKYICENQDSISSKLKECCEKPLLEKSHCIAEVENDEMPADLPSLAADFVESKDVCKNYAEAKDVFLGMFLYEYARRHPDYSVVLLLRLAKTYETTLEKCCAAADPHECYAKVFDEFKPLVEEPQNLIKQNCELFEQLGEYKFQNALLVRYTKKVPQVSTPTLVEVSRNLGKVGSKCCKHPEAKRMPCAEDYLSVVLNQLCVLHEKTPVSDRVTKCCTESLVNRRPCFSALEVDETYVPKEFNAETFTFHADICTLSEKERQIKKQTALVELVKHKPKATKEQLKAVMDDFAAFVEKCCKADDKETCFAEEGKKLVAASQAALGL
Experiment: Binding to HSA on a Chiralpak HSA column
Format: in vitro ADME
Conditions: calibration with nine reference substances
*1 amine or outer side, *2 acyl side, *3 side chain or, on linkers, in order; H or OH if unused. Where a SMILES comes first, the peptide text is derived from it. Side-chain parts run from the residue outwards. [ ]: non-standard residue; d: D form. The star is where a group is joined. X1 = O=C(O)CC[C@H](NC(=O)N[C@@H](CCC(=O)N[C@H](CCCN*)C(=O)O)C(=O)O)C(=O)O; Benzoyl(4-SiFtBu2) = CC(C)(C)[Si](F)(c1ccc(C(=O)*)cc1)C(C)(C)C; dCit = NC(=O)NCCC[C@@H](N)C(=O)O; Suc = O=C(CCC(=O)[*:2])[*:1]; dDap = NC[C@@H](N)C(=O)O
MEASURED PARAMETER: Binding to HSA

CC(C)(C)[Si](F)(c1ccc(C(=O)NC[C@@H](NC(=O)[C@@H](CCCNC(N)=O)NC(=O)[C@@H](CCCNC(N)=O)NC(=O)[C@H](N)CCCNC(N)=O)C(=O)N[C@H](CCCCNC(=O)CCC(=O)NCCC[C@@H](NC(=O)CC[C@H](NC(=O)N[C@@H](CCC(=O)O)C(=O)O)C(=O)O)C(=O)O)C(=O)O)cc1)C(C)(C)C [SiFA-PSMA ligand 05] (H-[dCit][dCit][dCit][dDap](Benzoyl(4-SiFtBu2))[dK]([Suc-X1])-OH)    95.7%
CC(C)(C)[Si](F)(c1ccc(C(=O)NC[C@@H](NC(=O)[C@H](CCC(=O)O)NC(=O)CC[C@H](NC(=O)N[C@@H](CCC(=O)O)C(=O)O)C(=O)O)C(=O)N[C@H](CCCCNC(=O)CCC(=O)NCCC[C@@H](NC(=O)CC[C@H](NC(=O)N[C@@H](CCC(=O)O)C(=O)O)C(=O)O)C(=O)O)C(=O)O)cc1)C(C)(C)C [SiFA-PSMA ligand 01 c]    ≥98.9%
CC(C)(C)[Si](F)(c1ccc(C(=O)NC[C@@H](NC(=O)[C@@H](CC(=O)O)NC(=O)CC[C@H](NC(=O)N[C@@H](CCC(=O)O)C(=O)O)C(=O)O)C(=O)N[C@H](CCCCNC(=O)CCC(=O)NCCC[C@@H](NC(=O)CC[C@H](NC(=O)N[C@@H](CCC(=O)O)C(=O)O)C(=O)O)C(=O)O)C(=O)O)cc1)C(C)(C)C [SiFA-PSMA ligand 01 a]    ≥99.0%

====

Biological target: UniProtKB Q04609
Assay: IC50 determination: PSMA binding affinity, competition with [125I]XII on LNCaP cells
Details: LNCaP cells (150.000 cells/well); reference [125I]XII c = 0.2 nM; 1 h, 4° C., HBSS add. 1% BSA; mean ± SD (n = 3)
*1 amine or outer side, *2 acyl side, *3 side chain or, on linkers, in order; H or OH if unused. Where a SMILES comes first, the peptide text is derived from it. Side-chain parts run from the residue outwards. [ ]: non-standard residue; d: D form. The star is where a group is joined. X1 = O=C(O)CC[C@H](NC(=O)N[C@@H](CCC(=O)N[C@H](CCCN*)C(=O)O)C(=O)O)C(=O)O; Benzoyl(4-SiFtBu2) = CC(C)(C)[Si](F)(c1ccc(C(=O)*)cc1)C(C)(C)C; Suc = O=C(CCC(=O)[*:2])[*:1]; dDap = NC[C@@H](N)C(=O)O
MEASURED PARAMETER: IC50 (nM)

CC(C)(C)[Si](F)(c1ccc(C(=O)NC[C@@H](NC(=O)[C@@H](CCC(=O)O)NC(=O)CC[C@H](NC(=O)N[C@@H](CCC(=O)O)C(=O)O)C(=O)O)C(=O)N[C@H](CCCCNC(=O)CCC(=O)NCCC[C@@H](NC(=O)CC[C@H](NC(=O)N[C@@H](CCC(=O)O)C(=O)O)C(=O)O)C(=O)O)C(=O)O)cc1)C(C)(C)C    11.8
CC(C)(C)[Si](F)(c1ccc(C(=O)NC[C@@H](NC(=O)[C@@H](CCCCN)NC(=O)[C@@H](CCC(=O)O)NC(=O)[C@H](N)CCC(=O)O)C(=O)N[C@H](CCCCNC(=O)CCC(=O)NCCC[C@@H](NC(=O)CC[C@H](NC(=O)N[C@@H](CCC(=O)O)C(=O)O)C(=O)O)C(=O)O)C(=O)O)cc1)C(C)(C)C [SiFA-PSMA ligand 03 f] (H-[dE][dE][dK][dDap](Benzoyl(4-SiFtBu2))[dK]([Suc-X1])-OH)    6.9

====

The following compounds are shown together with reported IC50 values.
Target: PSMA (Homo sapiens)
Assay: IC50 determination: PSMA binding affinity, competition with [125I]XII on LNCaP cells
Settings: LNCaP cells (150.000 cells/well); reference [125I]XII c = 0.2 nM; 1 h, 4° C., HBSS add. 1% BSA; mean ± SD (n = 3)
MEASURED PARAMETER: IC50 (nM)

CC(C)(C)[Si](F)(c1ccc(C(=O)NC[C@@H](NC(=O)CNC(=O)CC[C@H](NC(=O)N[C@@H](CCC(=O)O)C(=O)O)C(=O)O)C(=O)N[C@H](CCCCNC(=O)CCC(=O)NCCC[C@@H](NC(=O)CC[C@H](NC(=O)N[C@@H](CCC(=O)O)C(=O)O)C(=O)O)C(=O)O)C(=O)O)cc1)C(C)(C)C    8.8
CC(C)(C)[Si](F)(c1ccc(C(=O)NC[C@@H](NC(=O)CNC(=O)[C@@H](CCC(=O)O)NC(=O)[C@H](N)CCC(=O)O)C(=O)N[C@H](CCCCNC(=O)CCC(=O)NCCC[C@@H](NC(=O)CC[C@H](NC(=O)N[C@@H](CCC(=O)O)C(=O)O)C(=O)O)C(=O)O)C(=O)O)cc1)C(C)(C)C    11.9
CC(C)(C)[Si](F)(c1ccc(C(=O)NC[C@@H](NC(=O)[C@@H](Cc2ccccc2)NC(=O)CC[C@H](NC(=O)N[C@@H](CCC(=O)O)C(=O)O)C(=O)O)C(=O)N[C@H](CCCCNC(=O)CCC(=O)NCCC[C@@H](NC(=O)CC[C@H](NC(=O)N[C@@H](CCC(=O)O)C(=O)O)C(=O)O)C(=O)O)C(=O)O)cc1)C(C)(C)C    29.4

====

Examples of compounds with documented Internalization follow.
Tested on: LNCaP cells
Assay: Internalization of 18F-labeled ligands into LNCaP cells
Type: cell-based, human
Conditions: internalized activity at 1 h in % of reference [125I]XII; c = 0.5 nM; LNCaP cells (125.000 cells/well); 37° C., DMEM/F-12 add. 5% BSA; corrected for non-specific binding (10 μm PMPA); mean ± SD (n = 3)
*1 amine or outer side, *2 acyl side, *3 side chain or, on linkers, in order; H or OH if unused. Where a SMILES comes first, the peptide text is derived from it. Side-chain parts run from the residue outwards. [ ]: non-standard residue; d: D form. The star is where a group is joined. X1 = O=C(O)CC[C@H](NC(=O)N[C@@H](CCC(=O)N[C@H](CCCN*)C(=O)O)C(=O)O)C(=O)O; Benzoyl(4-SiFtBu2) = CC(C)(C)[Si](F)(c1ccc(C(=O)*)cc1)C(C)(C)C; Suc = O=C(CCC(=O)[*:2])[*:1]; dDap = NC[C@@H](N)C(=O)O
MEASURED PARAMETER: Internalization (%)

CC(C)(C)[Si](F)(c1ccc(C(=O)NC[C@@H](NC(=O)[C@@H](CN)NC(=O)[C@@H](CCC(=O)O)NC(=O)[C@H](N)CCC(=O)O)C(=O)N[C@H](CCCCNC(=O)CCC(=O)NCCC[C@@H](NC(=O)CC[C@H](NC(=O)N[C@@H](CCC(=O)O)C(=O)O)C(=O)O)C(=O)O)C(=O)O)cc1)C(C)(C)C [SiFA-PSMA ligand 03 d] (H-[dE][dE][dDap][dDap](Benzoyl(4-SiFtBu2))[dK]([Suc-X1])-OH)    171.82
CC(C)(C)[Si](F)(c1ccc(C(=O)NC[C@@H](NC(=O)[C@@H](CN)NC(=O)CC[C@H](NC(=O)N[C@@H](CCC(=O)O)C(=O)O)C(=O)O)C(=O)N[C@H](CCCCNC(=O)CCC(=O)NCCC[C@@H](NC(=O)CC[C@H](NC(=O)N[C@@H](CCC(=O)O)C(=O)O)C(=O)O)C(=O)O)C(=O)O)cc1)C(C)(C)C    125.13

====

Test system: LNCaP cells
Assay: Internalization of 18F-labeled ligands into LNCaP cells
Format: cell-based, human
Settings: internalized activity at 1 h in % of reference [125I]XII; c = 0.5 nM; LNCaP cells (125.000 cells/well); 37° C., DMEM/F-12 add. 5% BSA; corrected for non-specific binding (10 μm PMPA); mean ± SD (n = 3)
*1 amine or outer side, *2 acyl side, *3 side chain or, on linkers, in order; H or OH if unused. Where a SMILES comes first, the peptide text is derived from it. Side-chain parts run from the residue outwards. [ ]: non-standard residue; d: D form. The star is where a group is joined. X1 = O=C(O)CC[C@H](NC(=O)N[C@@H](CCC(=O)N[C@H](CCCN*)C(=O)O)C(=O)O)C(=O)O; Benzoyl(4-SiFtBu2) = CC(C)(C)[Si](F)(c1ccc(C(=O)*)cc1)C(C)(C)C; Suc = O=C(CCC(=O)[*:2])[*:1]; dDap = NC[C@@H](N)C(=O)O
MEASURED PARAMETER: Internalization (%)

CC(C)(C)[Si](F)(c1ccc(C(=O)NC[C@@H](NC(=O)[C@@H](CCC(=O)O)NC(=O)CC[C@H](NC(=O)N[C@@H](CCC(=O)O)C(=O)O)C(=O)O)C(=O)N[C@H](CCCCNC(=O)CCC(=O)NCCC[C@@H](NC(=O)CC[C@H](NC(=O)N[C@@H](CCC(=O)O)C(=O)O)C(=O)O)C(=O)O)C(=O)O)cc1)C(C)(C)C [SiFA-PSMA ligand 01 b]    126.43
CC(C)(C)[Si](F)(c1ccc(C(=O)NC[C@@H](NC(=O)CCCCCNC(=O)CC[C@@H](NC(=O)N[C@H](CCC(=O)O)C(=O)O)C(=O)O)C(=O)N[C@H](CCCCNC(=O)CCC(=O)NCCC[C@@H](NC(=O)CC[C@H](NC(=O)N[C@@H](CCC(=O)O)C(=O)O)C(=O)O)C(=O)O)C(=O)O)cc1)C(C)(C)C [SiFA-PSMA ligand 02 d]    119.56
CC(C)(C)[Si](F)(c1ccc(C(=O)NC[C@@H](NC(=O)[C@@H](CCCCN)NC(=O)[C@@H](CCC(=O)O)NC(=O)[C@H](N)CCC(=O)O)C(=O)N[C@H](CCCCNC(=O)CCC(=O)NCCC[C@@H](NC(=O)CC[C@H](NC(=O)N[C@@H](CCC(=O)O)C(=O)O)C(=O)O)C(=O)O)C(=O)O)cc1)C(C)(C)C [SiFA-PSMA ligand 03 f] (H-[dE][dE][dK][dDap](Benzoyl(4-SiFtBu2))[dK]([Suc-X1])-OH)    94.24
